target: human cathepsin K (UniProt P43236); experiment: Cathepsin K Assay (hrbCat K); assay type: biochemical; conditions: Z-Leu-Arg-AMC substrate, pH 5.5, 15 min preincubation; read-out: hrbCat K (IP (nM))
reported-property: IC50 (nM)

Solved cases below.
molecule	IC50 (nM)
N#CC1(NC(=O)[C@@H]2CCCC[C@H]2c2nc(C3CCCCO3)sc2-c2ccc(N3CCS(=O)(=O)CC3)cc2)CC1 (mixture of isomers)	2.6
Cc1ccc(-c2nc([C@@H]3CC[C@H](F)C[C@H]3C(=O)NC3(C#N)CC3)c(-c3ccc(N4CCC(C)(O)CC4)cc3)s2)nn1	6.2
N#CC1(NC(=O)[C@@H]2CC3CC3C[C@H]2c2nc(-c3ccc(F)cn3)sc2-c2ccc(N3CCS(=O)(=O)CC3)cc2)CC1 (single isomer, unassigned) [Example 105]	0.8
Cc1ncc(-c2nc([C@@H]3CCCC[C@H]3C(=O)NC3(C#N)CC3)c(-c3ccc(N4CCS(=O)(=O)CC4)cc3)s2)cn1	1.6
COc1cnc(-c2nc([C@@H]3CCCC[C@H]3C(=O)NC3(C#N)CC3)c(-c3ccc(N4CCS(=O)(=O)CC4)cc3)s2)c(F)c1	5.1

P: N#CCNC(=O)[C@@H]1CCCC[C@H]1c1nc(C2CC2)sc1-c1ccc(N2CCS(=O)(=O)CC2)cc1
Q: Cc1nc([C@@H]2CC[C@H](F)C[C@H]2C(=O)N[C@@H](C)C#N)c(-c2ccc(N3CCS(=O)(=O)CC3)cc2)s1
R: Cc1ccc(-c2nc([C@@H]3CC[C@H](F)C[C@H]3C(=O)NC3(C#N)CC3)c(-c3ccc(N4CCS(=O)(=O)CC4)cc3)s2)nn1
S: N#CC1(NC(=O)[C@@H]2CCCC[C@H]2c2nc(-c3ncc(F)cn3)sc2-c2ccc(N3CCS(=O)(=O)CC3)cc2)CC1
Arrange by IC50, high to low. In plain terms: list the labels in the order you were asked to.
S, Q, R, P
(S: 31.6 nM, Q: 5 nM, R: 2.4 nM, P: 1.2 nM)

I: N#CC1(NC(=O)[C@@H]2CCCC[C@H]2c2nc(-c3cccc(C4CCOCC4)c3)sc2-c2ccc(N3CCS(=O)(=O)CC3)cc2)CC1
II: N#Cc1ccc(-c2nc([C@@H]3CCCC[C@H]3C(=O)NC3(C#N)CC3)c(-c3ccc(N4CCS(=O)(=O)CC4)cc3)s2)cc1
III: N#CN=S1(=O)CCN(c2ccc(-c3sc(-c4ccc(F)cc4)nc3[C@@H]3CCCC[C@H]3C(=O)NC3(C#N)CC3)cc2)CC1
IV: N#CC1(NC(=O)[C@@H]2CCCC[C@H]2c2nc(N3CC(F)(F)C3)sc2-c2ccc(N3CCS(=O)(=O)CC3)cc2)CC1
Reorder the items by IC50, least to greatest. In plain terms: list the labels in the order you were asked to.
II, I, III, IV
(II: 0.7 nM, I: 1.7 nM, III: 2.72 nM, IV: 8 nM)

P: N#CC1(NC(=O)[C@@H]2CCCC[C@H]2c2nc(-c3cncc(Cl)c3)sc2-c2ccc(N3CCS(=O)(=O)C4(CC4)C3)cc2)CC1
Q: N#CC1(NC(=O)[C@@H]2CCCC[C@H]2c2nc(N3CCO[C@@H](C(F)(F)F)C3)sc2-c2ccc(N3CCS(=O)(=O)CC3)cc2)CC1
R: N#CC1(NC(=O)[C@@H]2CCCC[C@H]2c2nc(-c3ncc(F)cc3F)sc2-c2ccc(N3CCS(=O)(=O)CC3)cc2)CC1
S: N#CC1(NC(=O)[C@@H]2CC(F)(F)CC[C@H]2c2nc(-c3cccnc3)sc2-c2ccc(N3CCS(=O)(=O)CC3)cc2)CC1
T: C[C@@H](C#N)NC(=O)[C@@H]1C[C@@H](F)CC[C@H]1c1nc(-c2ccc(F)cn2)sc1-c1ccc(N2CCS(=O)(=O)CC2)cc1 [Example 130]
Reorder the items by IC50, least to greatest. In plain terms: list the labels in the order you were asked to.
S, T, P, Q, R

1: N#CC1(NC(=O)[C@@H]2CC(F)(F)CC[C@H]2c2nc(-c3ccc(F)cc3)sc2-c2ccc(C(=O)N3CCOCC3)cc2)CC1
2: CC(C)(C#N)NC(=O)[C@@H]1C[C@@H](F)CC[C@H]1c1nc(-c2ccc(F)cn2)sc1-c1ccc(N2CCS(=O)(=O)CC2)cc1
Compare 1 and 2 and name the one whose reported IC50 is smaller. Return value: the label identifying the chosen record.
1
